B1: library; a variant is named by its letters at N, in order (parent)
chain: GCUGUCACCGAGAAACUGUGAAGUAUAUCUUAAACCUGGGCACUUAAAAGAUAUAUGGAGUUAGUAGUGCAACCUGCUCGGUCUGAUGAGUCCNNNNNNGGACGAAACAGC

variants of: B1; assay: FACS-Seq fitted mean relative fluorescence mCherry/BFP with ligand (log10 relative fluorescence); HEK293T; ligand: cyclic di-GMP (c-di-GMP-II aptamer); ligand concentration (+) FACS-Seq: 1 mM; higher = higher reporter protein expression; details: ligand present: yes
I would appreciate it if you labelled entries true (1) when FACS-Seq fitted mean (log10) is -0.1 or higher, otherwise false (0).

> print(dat)
                                    residues  assigned.category
 1  GCUGUCACCGAGAAACUGUGAAGUAUAUCUUAAACCUGGGCACUUAAAAGAUAUAUGGAGUUAGUAGUGCAACCUGCUCGGUCUGAUGAGUCCACAUACGGACGAAACAGC          false (0)
 2  GCUGUCACCGAGAAACUGUGAAGUAUAUCUUAAACCUGGGCACUUAAAAGAUAUAUGGAGUUAGUAGUGCAACCUGCUCGGUCUGAUGAGUCCCUGAAUGGACGAAACAGC           true (1)
 3  GCUGUCACCGAGAAACUGUGAAGUAUAUCUUAAACCUGGGCACUUAAAAGAUAUAUGGAGUUAGUAGUGCAACCUGCUCGGUCUGAUGAGUCCCUUUCAGGACGAAACAGC          false (0)
 4  GCUGUCACCGAGAAACUGUGAAGUAUAUCUUAAACCUGGGCACUUAAAAGAUAUAUGGAGUUAGUAGUGCAACCUGCUCGGUCUGAUGAGUCCCCGGUGGGACGAAACAGC          false (0)
 5  GCUGUCACCGAGAAACUGUGAAGUAUAUCUUAAACCUGGGCACUUAAAAGAUAUAUGGAGUUAGUAGUGCAACCUGCUCGGUCUGAUGAGUCCACGUUUGGACGAAACAGC          false (0)
 6  GCUGUCACCGAGAAACUGUGAAGUAUAUCUUAAACCUGGGCACUUAAAAGAUAUAUGGAGUUAGUAGUGCAACCUGCUCGGUCUGAUGAGUCCCUUUCUGGACGAAACAGC           true (1)
 7  GCUGUCACCGAGAAACUGUGAAGUAUAUCUUAAACCUGGGCACUUAAAAGAUAUAUGGAGUUAGUAGUGCAACCUGCUCGGUCUGAUGAGUCCUAACUUGGACGAAACAGC          false (0)
 8  GCUGUCACCGAGAAACUGUGAAGUAUAUCUUAAACCUGGGCACUUAAAAGAUAUAUGGAGUUAGUAGUGCAACCUGCUCGGUCUGAUGAGUCCAGAAUCGGACGAAACAGC           true (1)
 9  GCUGUCACCGAGAAACUGUGAAGUAUAUCUUAAACCUGGGCACUUAAAAGAUAUAUGGAGUUAGUAGUGCAACCUGCUCGGUCUGAUGAGUCCCUAUCUGGACGAAACAGC          false (0)
10  GCUGUCACCGAGAAACUGUGAAGUAUAUCUUAAACCUGGGCACUUAAAAGAUAUAUGGAGUUAGUAGUGCAACCUGCUCGGUCUGAUGAGUCCGCCCCUGGACGAAACAGC           true (1)
11  GCUGUCACCGAGAAACUGUGAAGUAUAUCUUAAACCUGGGCACUUAAAAGAUAUAUGGAGUUAGUAGUGCAACCUGCUCGGUCUGAUGAGUCCCGGUGUGGACGAAACAGC          false (0)
12  GCUGUCACCGAGAAACUGUGAAGUAUAUCUUAAACCUGGGCACUUAAAAGAUAUAUGGAGUUAGUAGUGCAACCUGCUCGGUCUGAUGAGUCCAAUAGAGGACGAAACAGC          false (0)
13  GCUGUCACCGAGAAACUGUGAAGUAUAUCUUAAACCUGGGCACUUAAAAGAUAUAUGGAGUUAGUAGUGCAACCUGCUCGGUCUGAUGAGUCCGUGAUCGGACGAAACAGC          false (0)
14  GCUGUCACCGAGAAACUGUGAAGUAUAUCUUAAACCUGGGCACUUAAAAGAUAUAUGGAGUUAGUAGUGCAACCUGCUCGGUCUGAUGAGUCCCAGAUAGGACGAAACAGC          false (0)
15  GCUGUCACCGAGAAACUGUGAAGUAUAUCUUAAACCUGGGCACUUAAAAGAUAUAUGGAGUUAGUAGUGCAACCUGCUCGGUCUGAUGAGUCCCCGUAAGGACGAAACAGC          false (0)
